Reported Papp A→B at 2 h, 5 μM values are given for each entry in this list.
Experiment: in vitro
Details: human, Caco-2, pH 7.4
Form entry: value (×10⁻⁶ cm/s) — number only.

>>> numeric_readout("CC[C@@H]1NC(=O)[C@H]([C@H](O)[C@H](C)Cc2nc3cc(NC(=N)N)ccc3[nH]2)N(C)C(=O)[C@H](C(C)C)N(C)C(=O)[C@H](CC(C)C)N(C)C(=O)[C@H](CC(C)C)N(C)C(=O)[C@@H](C)NC(=O)[C@H](C)NC(=O)[C@H](CC(C)C)N(C)C(=O)[C@H](C(C)C)NC(=O)[C@H](CC(C)C)N(C)C(=O)CN(C)C1=O")
0.4

// below: Papp A→B at 2 h, 5 μM requested for another compound
Challenge: Papp A→B at 2 h, 5 μM for CC[C@@H]1NC(=O)[C@H]([C@H](O)[C@H](C)Cc2nc3cc(S(=O)(=O)O)ccc3[nH]2)N(C)C(=O)[C@H](C(C)C)N(C)C(=O)[C@H](CC(C)C)N(C)C(=O)[C@H](CC(C)C)N(C)C(=O)[C@@H](C)NC(=O)[C@H](C)NC(=O)[C@H](CC(C)C)N(C)C(=O)[C@H](C(C)C)NC(=O)[C@H](CC(C)C)N(C)C(=O)CN(C)C1=O ?
Response given: 0.9

###

Reported pIC50 values are given for each entry in this list.
Biological target: calcineurin (Homo sapiens, UniProt P62937+P63098+Q08209)
Assay: Inhibition of the phosphatase activity of calcineurin (scintillation-proximity-assay, in presence of Cyp18);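 further: calcineurin dephosphorylation of a ³³P-labelled RII phosphopeptide, captured on streptavidin-coated wells and read by scintillation counting, with uninhibited enzyme activity taken as 100%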
pIC50: −log10 of the molar value.

Take a look at these entries with their results.
>>> result("CC[C@@H]1NC(=O)[C@H]([C@H](O)[C@H](C)Cc2nc3c(C(=O)O)cccc3n2C)N(C)C(=O)[C@H](C(C)C)N(C)C(=O)[C@H](CC(C)C)N(C)C(=O)[C@H](CC(C)C)N(C)C(=O)[C@@H](C)NC(=O)[C@H](C)NC(=O)[C@H](CC(C)C)N(C)C(=O)[C@H](C(C)C)NC(=O)[C@H](CC(C)C)N(C)C(=O)CN(C)C1=O [Compound 56]")
"< 5.00"
>>> result("CC[C@@H]1NC(=O)[C@H]([C@H](O)[C@H](C)Cc2nc3cc(C(=O)OC)c(C(=O)OC)cc3[nH]2)N(C)C(=O)[C@H](C(C)C)N(C)C(=O)[C@H](CC(C)C)N(C)C(=O)[C@H](CC(C)C)N(C)C(=O)[C@@H](C)NC(=O)[C@H](C)NC(=O)[C@H](CC(C)C)N(C)C(=O)[C@H](C(C)C)NC(=O)[C@H](CC(C)C)N(C)C(=O)CN(C)C1=O [Compound 32]")
"< 5.00"
>>> result("CC[C@@H]1NC(=O)[C@H]([C@H](O)[C@H](C)Cc2nc3cc(-c4ccc(N)c(N)c4)ccc3[nH]2)N(C)C(=O)[C@H](C(C)C)N(C)C(=O)[C@H](CC(C)C)N(C)C(=O)[C@H](CC(C)C)N(C)C(=O)[C@@H](C)NC(=O)[C@H](C)NC(=O)[C@H](CC(C)C)N(C)C(=O)[C@H](C(C)C)NC(=O)[C@H](CC(C)C)N(C)C(=O)CN(C)C1=O [Compound 39]")
"< 5.00"

Challenge: Under calcineurin (Homo sapiens, UniProt P62937+P63098+Q08209): pIC50 value of CC[C@@H]1NC(=O)[C@H]([C@H](O)[C@H](C)Cc2nc3nc(S)nc(S)c3[nH]2)N(C)C(=O)[C@H](C(C)C)N(C)C(=O)[C@H](CC(C)C)N(C)C(=O)[C@H](CC(C)C)N(C)C(=O)[C@@H](C)NC(=O)[C@H](C)NC(=O)[C@H](CC(C)C)N(C)C(=O)[C@H](C(C)C)NC(=O)[C@H](CC(C)C)N(C)C(=O)CN(C)C1=O [Compound 16] ?
Response given: 5.12

Challenge: Under calcineurin (Homo sapiens, UniProt P62937+P63098+Q08209): pIC50 value of CC[C@@H]1NC(=O)[C@H]([C@H](O)[C@H](C)Cc2nc3cccc(C(=O)O)c3n2C)N(C)C(=O)[C@H](C(C)C)N(C)C(=O)[C@H](CC(C)C)N(C)C(=O)[C@H](CC(C)C)N(C)C(=O)[C@@H](C)NC(=O)[C@H](C)NC(=O)[C@H](CC(C)C)N(C)C(=O)[C@H](C(C)C)NC(=O)[C@H](CC(C)C)N(C)C(=O)CN(C)C1=O [Compound 55] ?
Response given: < 5.00

Challenge: Under calcineurin (Homo sapiens, UniProt P62937+P63098+Q08209): pIC50 value of CC[C@@H]1NC(=O)[C@H]([C@H](O)[C@H](C)Cc2nc3cc(-c4nnn[nH]4)ccc3[nH]2)N(C)C(=O)[C@H](C(C)C)N(C)C(=O)[C@H](CC(C)C)N(C)C(=O)[C@H](CC(C)C)N(C)C(=O)[C@@H](C)NC(=O)[C@H](C)NC(=O)[C@H](CC(C)C)N(C)C(=O)[C@H](C(C)C)NC(=O)[C@H](CC(C)C)N(C)C(=O)CN(C)C1=O [Compound 33] ?
Response given: < 5.00
